assay: chemical genetic growth profiling, strain panel (AID 1159580);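 note: tested at 20 µM; growth read once vehicle control cultures reached saturation at 30 °C; lower values mean less growth of the strain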; settings: S. cerevisiae deletion strains, growth OD, locus YKL193C, strain SDS22
Screen size: about 5,500 compounds; about 2,000 (36%) were called active. About 18% were inconclusive and are not listed. Cut-off read from the data, not from the text of the source: active = normalized growth mostly below about 0.91 (no sharp cut-off); inconclusive = no clear call, values can overlap the other calls; inactive = mostly above about 0.92. Some of the results follow.
Select the correct class. Options are YES (active), NO (inactive) and nothing else.

// below: answered molecules
>  <mol>
S=C(Nc1cc(-c2cccs2)[nH]n1)Nc1ccccc1Cl

>  <class label>
NO

$$$$
>  <mol>
O=C(C=C(O)c1ccc(Br)cc1)C(=O)Nc1ccccc1

>  <class label>
YES

$$$$
>  <mol>
O=C(NCc1ccco1)c1ccc(Oc2cc(Cl)cc(Cl)c2)o1

>  <class label>
NO

$$$$

Tell me the recorded outcome of this test for "CC1=CC(=O)C(CCOCCC2=CC(=O)C(C)=CC2=O)=CC1=O" .
NO
